assay: in vivo; conditions: nude, mouse, plasma, po, 1000 mg/kg
OBSERVED_PROPERTY: concentration at 336 h

Q. What value of measured concentration at 336 h is listed for CCCS(=O)(=O)Nc1ccc(F)c(C(=O)c2c[nH]c3ncc(Cl)cc23)c1F ?
A. ≤ 600 µM

====

experiment: cells; conditions: Homo sapiens, SW-620, 1 h
OBSERVED_PROPERTY: IC50

Q. What value of measured IC50 is listed for CCCS(=O)(=O)Nc1ccc(F)c(C(=O)c2c[nH]c3ncc(Cl)cc23)c1F ?
A. > 40 µM
